molecular target: HSV DNA polymerase (Human herpesvirus 1)
readout_kind: pKi
Answers are plain numbers, as −log10 of the molar value.

[Q] What does the data say about its pKi? Entry: Nc1nc2c(ncn2[C@@H]2C[C@H](COP(=O)(O)OP(=O)(O)OP(=O)(O)O)[C@@H](O)C2)c(=O)[nH]1 [D-2'CdG-TP]
[A] 6.46

----------
Target: DNA polymerase γ (Homo sapiens, UniProt P54098)
Sequence (P54098 26-1239): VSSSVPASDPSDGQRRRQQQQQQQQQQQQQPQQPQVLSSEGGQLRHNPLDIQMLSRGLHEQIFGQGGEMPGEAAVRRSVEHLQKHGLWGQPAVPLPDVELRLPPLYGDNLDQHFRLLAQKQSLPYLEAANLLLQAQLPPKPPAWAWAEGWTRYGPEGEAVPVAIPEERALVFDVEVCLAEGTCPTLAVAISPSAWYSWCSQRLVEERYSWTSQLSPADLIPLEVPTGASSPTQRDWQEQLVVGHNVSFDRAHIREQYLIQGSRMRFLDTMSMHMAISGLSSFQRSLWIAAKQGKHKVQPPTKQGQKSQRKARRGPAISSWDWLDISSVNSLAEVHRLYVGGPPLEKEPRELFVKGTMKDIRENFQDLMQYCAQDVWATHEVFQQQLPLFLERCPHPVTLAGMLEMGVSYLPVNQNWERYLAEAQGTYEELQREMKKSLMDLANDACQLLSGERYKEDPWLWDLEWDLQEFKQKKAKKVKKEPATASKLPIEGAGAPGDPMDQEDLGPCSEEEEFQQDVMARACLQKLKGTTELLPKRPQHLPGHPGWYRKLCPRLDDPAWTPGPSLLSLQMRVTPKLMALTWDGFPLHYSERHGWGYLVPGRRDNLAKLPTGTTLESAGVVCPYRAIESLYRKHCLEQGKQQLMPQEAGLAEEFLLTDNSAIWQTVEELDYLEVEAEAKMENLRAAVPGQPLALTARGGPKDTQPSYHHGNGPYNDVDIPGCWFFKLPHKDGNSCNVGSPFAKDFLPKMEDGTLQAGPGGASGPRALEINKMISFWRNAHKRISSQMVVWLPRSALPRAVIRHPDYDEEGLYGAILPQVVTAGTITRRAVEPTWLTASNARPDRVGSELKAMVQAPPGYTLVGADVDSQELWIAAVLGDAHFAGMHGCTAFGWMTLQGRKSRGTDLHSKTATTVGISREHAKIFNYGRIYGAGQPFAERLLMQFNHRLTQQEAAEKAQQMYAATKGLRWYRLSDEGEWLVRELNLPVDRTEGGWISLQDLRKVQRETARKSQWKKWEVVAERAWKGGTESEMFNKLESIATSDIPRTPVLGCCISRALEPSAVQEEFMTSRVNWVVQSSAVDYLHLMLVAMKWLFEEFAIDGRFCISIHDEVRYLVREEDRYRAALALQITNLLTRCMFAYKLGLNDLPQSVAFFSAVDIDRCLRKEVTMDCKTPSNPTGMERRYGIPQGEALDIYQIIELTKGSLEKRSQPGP
Sequence (Q9UHN1 26-485 partner): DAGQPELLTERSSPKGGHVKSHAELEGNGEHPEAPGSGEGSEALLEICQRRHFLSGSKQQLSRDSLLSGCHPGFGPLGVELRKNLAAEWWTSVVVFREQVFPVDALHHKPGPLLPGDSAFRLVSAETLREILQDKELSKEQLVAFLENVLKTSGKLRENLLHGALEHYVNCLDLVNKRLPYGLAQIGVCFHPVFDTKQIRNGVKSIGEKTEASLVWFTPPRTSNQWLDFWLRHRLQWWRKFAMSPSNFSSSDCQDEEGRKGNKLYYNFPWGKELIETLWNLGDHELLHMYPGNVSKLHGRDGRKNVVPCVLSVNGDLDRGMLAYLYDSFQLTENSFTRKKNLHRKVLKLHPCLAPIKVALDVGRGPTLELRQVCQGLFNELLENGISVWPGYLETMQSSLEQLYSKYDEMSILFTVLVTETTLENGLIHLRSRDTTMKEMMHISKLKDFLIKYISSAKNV
Could you please report measured pIC50 for the items listed next?
Numbers only, as −log10 of the molar value.

Nc1nc2c(ncn2[C@@H]2C[C@H](COP(=O)(O)OP(=O)(O)OP(=O)(O)O)[C@@H](O)C2)c(=O)[nH]1    3.52

Next molecule, please.
[Q] pIC50 for Nc1nc2c(ncn2[C@H]2C[C@@H](COP(=O)(O)OP(=O)(O)OP(=O)(O)O)[C@H](O)C2)c(=O)[nH]1 ?
[A] 3.67

----------
For each record, write down the corresponding IC50.
target: HSV DNA polymerase (Human herpesvirus 1, UniProt P04293); construct: HSV DNA polymerase was purified from H.Ep.-2 cells infected with HSV-1; made in house; host or cells: H.Ep.-2 cells infected with HSV-1; experiment: Inhibition of [3H]dGTP incorporation into DNA by purified HSV DNA polymerase; assay type: biochemical, HSV-1; details: incorporation of 1 µM [3H]dGTP into DNA
Sequence (P10226 whole entry): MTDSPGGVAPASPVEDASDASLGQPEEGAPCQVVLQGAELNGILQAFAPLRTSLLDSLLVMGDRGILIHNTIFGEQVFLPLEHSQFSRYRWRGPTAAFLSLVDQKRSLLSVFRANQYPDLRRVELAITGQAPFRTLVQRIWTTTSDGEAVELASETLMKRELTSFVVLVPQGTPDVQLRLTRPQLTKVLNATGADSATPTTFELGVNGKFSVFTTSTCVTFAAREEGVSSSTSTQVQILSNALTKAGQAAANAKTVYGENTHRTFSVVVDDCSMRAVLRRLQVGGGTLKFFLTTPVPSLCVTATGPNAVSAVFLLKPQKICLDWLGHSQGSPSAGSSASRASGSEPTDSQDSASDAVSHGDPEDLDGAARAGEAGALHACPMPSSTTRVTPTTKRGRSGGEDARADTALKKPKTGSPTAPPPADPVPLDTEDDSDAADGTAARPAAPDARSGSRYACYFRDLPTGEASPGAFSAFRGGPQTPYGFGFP
Sequence (P04293 whole entry): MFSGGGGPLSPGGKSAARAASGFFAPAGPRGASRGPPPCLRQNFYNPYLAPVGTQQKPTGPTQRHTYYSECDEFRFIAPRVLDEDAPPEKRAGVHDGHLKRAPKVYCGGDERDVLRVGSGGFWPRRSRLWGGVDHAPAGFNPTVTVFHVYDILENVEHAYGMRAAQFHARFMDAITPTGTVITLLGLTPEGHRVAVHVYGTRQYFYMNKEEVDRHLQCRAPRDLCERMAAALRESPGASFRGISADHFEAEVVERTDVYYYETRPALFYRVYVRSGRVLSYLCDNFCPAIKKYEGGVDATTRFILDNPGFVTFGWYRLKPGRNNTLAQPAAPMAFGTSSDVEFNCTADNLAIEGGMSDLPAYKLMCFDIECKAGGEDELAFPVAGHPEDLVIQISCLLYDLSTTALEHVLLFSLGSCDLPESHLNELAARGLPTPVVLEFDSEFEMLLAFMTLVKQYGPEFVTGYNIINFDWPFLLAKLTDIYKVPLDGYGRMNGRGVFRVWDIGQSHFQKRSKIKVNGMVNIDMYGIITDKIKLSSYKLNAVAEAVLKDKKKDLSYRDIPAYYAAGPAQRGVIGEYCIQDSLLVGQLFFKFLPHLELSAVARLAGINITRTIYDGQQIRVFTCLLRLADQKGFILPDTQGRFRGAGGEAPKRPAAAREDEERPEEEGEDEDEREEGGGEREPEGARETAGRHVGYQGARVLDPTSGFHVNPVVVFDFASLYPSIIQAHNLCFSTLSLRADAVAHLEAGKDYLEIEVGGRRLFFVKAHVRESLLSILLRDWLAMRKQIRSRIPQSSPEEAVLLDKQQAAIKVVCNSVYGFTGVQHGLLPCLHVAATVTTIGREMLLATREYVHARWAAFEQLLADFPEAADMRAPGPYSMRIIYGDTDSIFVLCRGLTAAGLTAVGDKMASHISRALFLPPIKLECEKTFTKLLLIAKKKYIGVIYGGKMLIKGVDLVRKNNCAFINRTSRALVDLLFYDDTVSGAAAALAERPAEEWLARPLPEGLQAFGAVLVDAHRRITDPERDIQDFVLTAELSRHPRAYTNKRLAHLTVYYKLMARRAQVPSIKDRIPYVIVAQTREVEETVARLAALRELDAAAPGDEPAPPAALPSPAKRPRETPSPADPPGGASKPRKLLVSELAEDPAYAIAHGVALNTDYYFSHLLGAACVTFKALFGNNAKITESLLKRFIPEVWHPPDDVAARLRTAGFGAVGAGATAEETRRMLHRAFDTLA
Give bare numbers, in µM.

Nc1nc2c(ncn2[C@H]2C[C@@H](COP(=O)(O)OP(=O)(O)OP(=O)(O)O)[C@H](O)C2)c(=O)[nH]1 [L-2'CdG-TP]    460

[Q] Please give the measured IC50 for this compound: Nc1nc2c(ncn2[C@@H]2C[C@H](COP(=O)(O)OP(=O)(O)OP(=O)(O)O)[C@@H](O)C2)c(=O)[nH]1 [D-2'CdG-TP]
[A] 1.5
